Values from ChEMBL document CHEMBL1629597

System: Streptococcus pneumoniae
Experiment: Antimicrobial activity against Streptococcus pneumoniae by broth microdilution method
Type: functional
Task for the reader: assign each of the following molecules its reported MIC50.
Answer with the figure and its unit, nothing else.

Log: Streptococcus pneumoniae, molecule C[C@@H](O)[C@H]1C(=O)N2C(C(=O)O)=C(S[C@@H]3CN[C@H](C(=O)N(C)C)C3)[C@H](C)[C@H]12 [MEROPENEM] , MIC50 = 1 µg/mL

Here CC1(C)S[C@@H]2[C@H](NC(=O)[C@H](N)c3ccc(O)cc3)C(=O)N2[C@H]1C(=O)O [AMOXICILLIN] was tested on Streptococcus pneumoniae, and its MIC50 came to 8 µg/mL

Tested system Streptococcus pneumoniae; MIC50 recorded for CO/N=C(\C(=O)N[C@@H]1C(=O)N2C(C(=O)O)=C(COC(C)=O)CS[C@H]12)c1csc(N)n1 [CEFOTAXIME] was 8 µg/mL

So the reported MIC50 for CC1(C)S[C@@H]2[C@H](NC(=O)Cc3ccccc3)C(=O)N2[C@H]1C(=O)O [PENICILLIN G] , on Streptococcus pneumoniae, turned out to be 8 µg/mL

Field MIC50 (system: Streptococcus pneumoniae) for entry CO/N=C(\C(=O)N[C@@H]1C(=O)N2C(C(=O)O)=C(CSc3nc(=O)c(O)nn3C)CS[C@H]12)c1csc(N)n1 [CEFTRIAXONE] = 8 µg/mL
